measured-target: aldose reductase (Bos taurus, UniProt P16116)
Construct: in the preparation of the enzyme from bovine lens; from tissue; host or cells: bovine lens
assay-notes: in vitro inhibition of aldose reductase (modified Hayman and Kinoshita procedure, enzyme from bovine lens)
Type: biochemical
condition: 10^-5 M
endpoint-label: inhibition at 10 µM (%)
Quick note: give the figure in %, leave out the unit.

Ask: Give inhibition at 10 µM for CCOC(=O)NC(=O)CC1C(=O)N(C)C(=O)c2ccc(Cl)cc21 (stereo not shown)
Reply: 14.5

Ask: Give inhibition at 10 µM for COC(=O)NC(=O)CC1C(=O)N(C)C(=O)c2ccccc21 (stereo not shown)
Reply: 61

Ask: Give inhibition at 10 µM for COC(=O)NC(=O)CC1C(=O)N(C)C(=O)c2ccc(Cl)cc21 (stereo not shown)
Reply: 64.5

Ask: Give inhibition at 10 µM for COC(=O)NC(=O)CC1C(=O)N(Cc2ccc(Br)cc2F)C(=O)c2ccc(F)cc21 (stereo not shown)
Reply: 55

Ask: Give inhibition at 10 µM for O=C(O)CC1C(=O)N(Cc2ccc(Br)cc2F)C(=O)c2ccc(F)cc21 (stereo not shown)
Reply: 96

Ask: Give inhibition at 10 µM for COC(=O)NC(=O)CC1C(=O)N(C)C(=O)c2cc(Cl)ccc21 (stereo not shown)
Reply: 50

Ask: Give inhibition at 10 µM for O=C(O)CC1C(=O)N(Cc2ccc(Br)cc2F)C(=O)c2ccccc21 (stereo not shown)
Reply: 94

src = patent US4983613A
